test: qHTS assay to identify small molecule agonists of the estrogen related receptor signaling pathway with the pleiotropic PPARgamma coactivator (PGC) from Tox21 10K library (AID 1224842); details: PGC/ERR reporter cell line, luciferase ONE-Glo, 18 h; series mostly up to 92.4 µM; also: % is scaled to controls: 0 for no effect and ±100 for the full control effect; nearly all actives have a fitted effect of over 15% in size
Inconclusive results are not listed. The source made the active and inactive calls. Calls follow the shape of the dose curve; as a rule, active = well fitted activation curve with a large enough effect in the repeat runs; inconclusive = weak or mixed curves, or effect the other way; inactive = no such curve, though single readings can be large or run the other way.
Choose one outcome from this list and give only that: active, inactive

Please review the following examples before continuing.
>>> class_name("CCCCCCCC/C=C/CCCCCCCC1=NCCN1CCO")
"inactive"
>>> class_name("CCC(N)(CO)CO")
"inactive"
>>> class_name("Cc1ccc(O)c2ncccc12")
"inactive"
>>> class_name("On1ccccc1=S")
"inactive"

For "C[C@@H](NCCCc1cccc(C(F)(F)F)c1)c1cccc2ccccc12" , what call appears in the results of this test? inactive

For CCCC1O[C@@H]2C[C@H]3[C@@H]4CCC5=CC(=O)C=C[C@]5(C)[C@H]4[C@@H](O)C[C@]3(C)[C@]2(C(=O)CO)O1 (stereo partly drawn) , what call appears in the results of this test? inactive

For "Clc1ccc2nsnc2c1NC1=NCCN1" , what call appears in the results of this test? inactive

* * *

Test: qHTS assay to identify small molecule antagonists of the estrogen related receptor (ERR) signaling pathway from Tox21 library - cell viability counter screen (AID 1224834); also: nearly all actives have a fitted effect of over 30% in size
Settings: ERR reporter cells viability, CellTiter-Fluor, 17.5 h; series mostly up to 92.4 µM
Experimental: National Center for Advancing Translational Sciences [NCATS] NIH Chemical Genomics Center [NCGC] U.S. Environmental Protection Agency [EPA] National Institutes of Environmental Health Sciences [NIEHS] National Toxicology Program [NTP] […] The ERR cells were dispensed at 2,000 cells/5 ul/well in 1536-well white plates using a Multidrop dispenser. […] After 30-minute incubation at 37 C/5% CO2, the fluorescence intensity in the plates was measured using a ViewLux plate reader.
Records with an inconclusive call do not appear. Active and inactive are the calls of the source. Calls come from the whole dose curve; as a rule, active = well fitted cell-killing curve with a large enough effect in the repeat runs; inconclusive = weak or mixed curves; inactive = flat fitted curve, though single readings scatter.
Choose one outcome from this list and give only that: true (1) (active), false (0) (inactive)

Please review the following examples before continuing.
>>> class_name("O=C1C=CC(=O)N1c1ccc(Cc2ccc(N3C(=O)C=CC3=O)cc2)cc1")
"true (1)"
>>> class_name("Cc1onc(-c2c(Cl)cccc2Cl)c1C(=O)N[C@@H]1C(=O)N2[C@@H]1SC(C)(C)[C@@H]2C(=O)O")
"false (0)"
>>> class_name("CN(C)[C@@H]1C(=O)C(C(N)=O)=C(O)[C@@]2(O)C(=O)C3=C(O)c4c(O)ccc(Cl)c4[C@@H](O)[C@H]3C[C@@H]12")
"false (0)"
>>> class_name("COc1cc(/C=C/C(=O)O[C@H]2CC[C@]34C[C@]35CC[C@]3(C)[C@@H]([C@H](C)CCC=C(C)C)CC[C@@]3(C)[C@@H]5CC[C@H]4C2(C)C)ccc1O")
"false (0)"
>>> class_name("O=c1[nH]sc2cc(Cl)ccc12")
"false (0)"

Continue with the compound presented below.
For "Clc1ccc2nsnc2c1NC1=NCCN1" , what call appears in the results of this test? false (0)

* * *

assay: qHTS assay to identify small molecule antagonists of the vitamin D receptor (VDR) signaling pathway - cell viability counter screen (AID 743225); details: VDR-bla HEK293T viability, CellTiter-Glo luminescence, 16 h; series mostly up to 61 µM; also: nearly all actives have a fitted effect of over 50% in size; also: potency is read from the fitted curve at half-maximal effect
Results filed as inconclusive are left out. Activity calls are given as the source filed them. Calls come from the whole dose curve; as a rule, active = well fitted cell-killing curve with a large enough effect in the repeat runs; inconclusive = weak or mixed curves, or effect the other way; inactive = no such curve, though single readings can be large or run the other way.
READOUT: Potency

>>> result("COc1ccc(-c2ccc3cc(C(=O)O)ccc3c2)cc1C12CC3CC(CC(C3)C1)C2")
"inactive"
>>> result("C=CC(=O)OCCn1c(=O)n(CCOC(=O)C=C)c(=O)n(CCOC(=O)C=C)c1=O")
"43.6 µM (active)"
>>> result("C=CC(=O)OCC(CO)(COCC(COC(=O)C=C)(COC(=O)C=C)COC(=O)C=C)COC(=O)C=C")
"5.43 µM (active)"
>>> result("On1ccccc1=S")
"inactive"

I'd like to know its Potency. The molecule in question is CC1=C(C(=O)OC(C)C)C(c2cccc([N+](=O)[O-])c2)C(C(=O)OC2CN(C(c3ccccc3)c3ccccc3)C2)=C(N)N1 (stereo not drawn) 16.9 µM (active)

I'd like to know its Potency. The molecule in question is "Cc1cc2c(cc1C(F)(F)F)N(C(=O)Nc1ccc(Oc3cccnc3C)nc1)CC2" inactive

I'd like to know its Potency. The molecule in question is "CCN(C(=O)c1cc(C)cc(OC[C@H](C)Nc2ccncc2)c1)C(C)C" inactive

I'd like to know its Potency. The molecule in question is "O=C1C=CC(=O)N1c1ccc(Cc2ccc(N3C(=O)C=CC3=O)cc2)cc1" 21.9 µM (active)

Sourced from PubChem BioAssay (Tox21)
